Attribution: PubChem BioAssay AID1724

Experiment notes: Confirmation Concentration-Response Assay for Inhibitors of the ERK Signaling Pathway using a Homogeneous Screening Assay
Condition details: HEK293 cells, hormone-stimulated phospho-ERK AlphaScreen; series mostly up to 40.9 µM
Excerpt: qHTS Assay for Inhibitors of the ERK Signaling Pathway using a Homogeneous Screening Assay NIH Chemical Genomics Center [NCGC] NIH Molecular Libraries Screening Centers Network [MLSCN] Assay Submitter (PI): Dr. Wei Zheng, NCGC/NIH […] (10) Detect the assay plate in an EnVision plate reader (PerkinElmer) using the AlphaScreen detection mode. […]
Records with an inconclusive call do not appear. Activity calls are given as the source filed them. The call rests on the fitted dose curve; in most records, active means well fitted inhibition curve with a large enough effect; inconclusive means small, poorly fitted or top-dose-only effect, or effect the other way; inactive means no such curve, though single readings can be large or run the other way.
Classes used: active, inactive

[[record]]
compound = "C=C[C@]1(C)CC(=O)[C@@]2(O)[C@@]3(C)C(O)CCC(C)(C)C3C(O)C(OC(C)=O)[C@@]2(C)O1 (stereo not given in full)"
group = "inactive"

[[record]]
compound = "O=C1c2ccccc2C(=O)c2c1cccc2N1CCCC1"
group = "active"

[[record]]
compound = "COc1cc(C(=O)Nc2nc(-c3cccs3)cs2)cc(OC)c1OC"
group = "active"

[[record]]
compound = "O=C(Nc1ccc(N2CCN(C(=O)c3ccco3)CC2)c(Cl)c1)c1cc2ccccc2o1"
group = "active"

[[record]]
compound = "Cc1sc2ncnc(Sc3nnnn3-c3ccc(Cl)cc3)c2c1C"
group = "inactive"

[[record]]
compound = "Cc1nc2ccccc2c2oc(C(=O)N3CCc4ccccc4C3)cc12"
group = "active"

[[record]]
compound = "COc1ccc(CNc2ncnc3ccc(-c4cccc(NS(C)(=O)=O)c4)cc23)c(OC)c1"
group = "active"

[[record]]
compound = "COc1cc2ncnc(Nc3cccc(Cl)c3)c2cc1OC"
group = "inactive"

[[record]]
compound = "CN(C)c1cc2c(Nc3ccc4c(cnn4Cc4ccccc4)c3)ncnc2cn1"
group = "inactive"

[[record]]
compound = "CCOC(=O)c1ccc(NC(=O)c2ccc(C)c(S(=O)(=O)N3CCOCC3)c2)cc1"
group = "active"


* * *

Experiment notes: Confirmation Concentration-Response Assay for Inhibitors of the ERK Signaling Pathway using a Homogeneous Screening Assay
Condition details: HEK293 cells, hormone-stimulated phospho-ERK AlphaScreen; series mostly up to 40.9 µM
Excerpt: qHTS Assay for Inhibitors of the ERK Signaling Pathway using a Homogeneous Screening Assay NIH Chemical Genomics Center [NCGC] NIH Molecular Libraries Screening Centers Network [MLSCN] Assay Submitter (PI): Dr. Wei Zheng, NCGC/NIH […] (10) Detect the assay plate in an EnVision plate reader (PerkinElmer) using the AlphaScreen detection mode. […]
Results filed as inconclusive are left out. Active and inactive are the calls of the source. Calls follow the shape of the dose curve; as a rule, active = well fitted inhibition curve with a large enough effect; inconclusive = small, poorly fitted or top-dose-only effect, or effect the other way; inactive = no such curve, though single readings can be large or run the other way.
Classes used: 1 (yes) for active, 0 (no) for inactive

[[record]]
molecule = "CCOc1ccc(/C(O)=C2/C(=O)C(=O)N(c3ncccn3)C2c2ccccc2)cc1 (stereo not given)"
group = "0 (no)"

[[record]]
molecule = "COc1ccc(C2=Nn3c(nnc3-c3ccccc3OC)SC2)cc1OC"
group = "1 (yes)"

[[record]]
molecule = "C=C[C@@]1(C)CC(=O)[C@@]2(O)[C@@]3(C)[C@@H](O)CCC(C)(C)[C@@H]3[C@H](OC(=O)CCN(C)C)[C@H](OC(C)=O)[C@@]2(C)O1"
group = "1 (yes)"

[[record]]
molecule = "O=C1c2ccc(O)c(O)c2C(=O)c2c(O)ccc(O)c21"
group = "0 (no)"

[[record]]
molecule = "COc1ccc(C(=O)Nc2ccc(-c3ccc(C)o3)cc2)cc1S(=O)(=O)N1CCOCC1"
group = "1 (yes)"

